Molecular target: BRD4 (BDI_K57-E168) (Homo sapiens)
Experiment: TR-FRET bromodomain binding assay, BRD4 BDI
readout_kind: pKi
A value of pKi is the negative decimal logarithm of a concentration given in moles per litre.

The following compounds have reported results that may help.
{"compound": "Cc1cc(F)cc(C)c1Oc1ccc(C(C)(C)O)cc1-c1cn(C)c(=O)cc1O[C@H]1CC[C@@H](C#N)CC1 [Example 68]", "assay_value": 5.71}
{"compound": "Cc1cc(F)cc(C)c1Oc1ccc(C(C)(C)O)cc1-c1cn(C)c(=O)cc1O[C@H]1CC[C@H](NC(=O)C23CC(N)(C2)C3)CC1 (relative stereo) [Example 93]", "assay_value": 5.92}
{"compound": "Cc1cc(F)cc(C)c1Oc1ccc(C(C)(C)O)cc1-c1cn(C)c(=O)cc1O[C@H]1CC[C@H](NC(=O)C2(C)CC(=O)C2)CC1 [Example 87]", "assay_value": 5.61}
{"compound": "Cc1cc(F)cc(C)c1Oc1ccc(C(C)(C)O)cc1-c1cn(C)c(=O)cc1O[C@H]1CC[C@H](N2CCCS2(=O)=O)CC1 [Example 52]", "assay_value": 5.46}
{"compound": "CC(=O)N(N)[C@H]1CC[C@H](Oc2cc(=O)n(C)cc2-c2cc(C(C)(C)O)ccc2Oc2c(C)cc(F)cc2C)CC1 [Example 98]", "assay_value": 5.94}
{"compound": "COCC(=O)N1CCC(Oc2cc(=O)n(C)cc2-c2cc(C(C)(C)O)cnc2Oc2c(C)cc(F)cc2C)CC1 [Example 26]", "assay_value": 5.05}

Cc1cc(F)cc(C)c1Oc1ccc(C(C)(C)O)cc1-c1cn(C)c(=O)cc1O[C@H]1CC[C@H](N2C(=O)C3CC3C2=O)CC1 (relative stereo) [Example 129] yielded pKi of 6.11

Cc1ccc(=O)n([C@H]2CC[C@H](Oc3cc(=O)n(C)cc3-c3cc(C(C)(C)O)ccc3Oc3c(C)cc(F)cc3C)CC2)n1 [Example 130] yielded pKi of 5.50

Cc1cc(F)cc(C)c1Oc1ccc(C(C)(C)O)cc1-c1cn(C)c(=O)cc1O[C@H]1CC[C@H](NC(=O)CC(C)(C)CO)CC1 [Example 118] yielded pKi of 5.72
